All figures here come from patent US12662541B2.

Biological target: T1, rhEphA5 antigen (Homo sapiens, UniProt P54756)
T1 construct: purchased R and D systems 3036-A5
Assay: KD (M)
Experimental: Table printed on a drawing sheet, FIG. 13 Head of the field: KD (M) The patent's description of the figure: FIG. 13 is a table illustrating the single cycle kinetic parameters of chimeric (VH0/VK0) and humanized 11C12 variants (tested as cell culture supernatants) binding to rhEphA5 antigen as determined using the Biacore T200. The relative KD was calculated by dividing the KD of the humanized variant by that of the VH0/VK0 (top row) assayed in the same experiment. […]
What pKd was measured for each of the following?
Give bare numbers, as −log10 of the molar value.

VH2/VK3: humanized anti-EphA5 antibody, VH SEQ ID NO:3, VL SEQ ID NO:11 (antibody, V domains shown) VH: EVTLVESGGGLVQPGGSLKLSCAASGFTFSTFGIHWVRQAPGKGLEWVAYISGASTTIYYADTVKGRFTISRDNSKNTLYLQMNSLRSEDTAMYYCARYGTSFPYGLDYWGQGTLVTVSS VL: DIVMTQSPDSLAVSLGERATINCKASQSVDYDGDSYMNWYQQKPGKAPKLLIYGASNLESGIPDRFSGSGSGTDFTLTISRLEPEDAAVYYCQQSNEDPFTFGQGTKLEIK = 9.01
VH1/VK3: humanized anti-EphA5 antibody, VH SEQ ID NO:2, VL SEQ ID NO:11 (antibody, V domains shown) VH: EVTLVESGGGLVQPGGSRKLSCAASGFTFSTFGIHWVRQAPGKGLEWVAYISGASTTIYYADTVKGRFTISRDNSKNTLYLQMNSLRSEDTAMYYCARYGTSFPYGLDYWGQGTSVTVSS VL: DIVMTQSPDSLAVSLGERATINCKASQSVDYDGDSYMNWYQQKPGKAPKLLIYGASNLESGIPDRFSGSGSGTDFTLTISRLEPEDAAVYYCQQSNEDPFTFGQGTKLEIK = 9.02

Summary for this molecule, VH2/VK2: humanized anti-EphA5 antibody, VH SEQ ID NO:3, VL SEQ ID NO:10 (antibody, V domains shown) VH: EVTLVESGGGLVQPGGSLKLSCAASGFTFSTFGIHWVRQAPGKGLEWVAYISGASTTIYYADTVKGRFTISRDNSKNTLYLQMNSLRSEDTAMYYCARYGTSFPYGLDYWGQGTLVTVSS VL: DIVMTQSPDSLAVSLGERATINCKASQSVDYDGDSYMNWYQQKPGKAPKLLIYGASNLESGIPDRFSGSGSGTDFTLTISRLEPEDAASYYCQQSNEDPFTFGQGTKLEIK : pKd is 9.01
